Every entry's value here was drawn from ChEMBL document CHEMBL3102858.

Entries and their selectivity ratio
test: Therapeutic index, ratio of IC50 for human Huh7.5 cells to EC50 for HCV; type: cell-based, Huh-7; conditions: read-out: Ratio IC50/EC50

smiles input | selectivity ratio
COc1cc2c(cc1CO)C=C[C@@H]1C(C)(C)[C@@H](O)CC[C@@]21C | 4.9
C=C[C@]1(C)C=C2CC[C@H]3C(C)(C)[C@H](O)CC[C@]3(C)[C@H]2C[C@@H]1O | 3.2
Cc1cc2c(cc1O)[C@]1(C)CCC(=O)C(C)(C)[C@H]1[C@H](O)C2 | 5.5
C=Cc1c(C)c(O)cc2c1CC[C@@H]1C(C)(C)[C@H](O)CC[C@@]21C | 10.5
Cc1cc2c(cc1O)[C@]1(C)CC[C@H](O)C(C)(C)[C@H]1C=C2 | 9.8
COc1cc2c(cc1CO)C=C[C@@H]1C(C)(C)[C@H](O)CC[C@@]21C | 4.6
COc1cc2c(cc1C)C=C[C@@H]1C(C)(C)C(=O)CC[C@@]21C | 1.7
